# target: T1, human insulin-like growth factor binding protein 4 (IBP4) (human, UniProt P22692 22-258)
# T1 construct: also called IBP4 protein; IGFBP4
# T1 sequence: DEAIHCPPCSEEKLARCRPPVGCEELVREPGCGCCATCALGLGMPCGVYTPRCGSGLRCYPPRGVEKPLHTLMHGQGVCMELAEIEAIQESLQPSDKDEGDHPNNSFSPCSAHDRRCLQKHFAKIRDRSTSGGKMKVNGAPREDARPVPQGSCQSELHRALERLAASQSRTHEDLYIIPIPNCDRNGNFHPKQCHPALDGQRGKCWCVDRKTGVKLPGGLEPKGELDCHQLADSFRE
# testMethodNotes: SPR, format and IBP4 form not stated
observationType: t1/2 (min)
Answers are plain numbers, in min.

Previously resolved entries follow.
{"binder": "anti-IBP4 antibody 1H9.B6 (antibody, mouse IgG1, kappa, V domains shown, Mouse hybridoma mAb raised against FL IBP4; also called IBP4-1H9.B6) VH: EVQLQQSGPELVKPGASVKISCKTSGYTFTDYYMNWVKQSHGKSLEWIGDINPNNGGAGYNQKFKGKATLTVDKSSSTAYMELRSLTSEDSAVYYCARWGWDRYFDYWGQGTTLTVSS VL: DIVMTQSQKFMSTSVGDRVSVTCKASQNVGIDVAWYQQKPGQSPKALIYSASYRSSGVPDRFTGSGSGTDFTLTINNVQSEDLAEYFCQQYNSYPLAFGSGTKLEIKR", "valueUnit": "min", "testResult": 12.8}
{"binder": "anti-IBP4 antibody 5C11.A7 (antibody, mouse IgG1, kappa, V domains shown, Mouse hybridoma mAb raised against FL IBP4; also called IBP4-5C11.A7) VH: QVQLQQSGAELVRPGASVTLSCKASGYTFTDYEMHWVRQTPVHGLEWIGAIDTETGGPAYNQKFKGKAILTADKSSSTAYMELRSLTSEDSAVYFCTRARGSRSVYYFDNWGQGTTLTVSS VL: DIVMTQSQKFMSTSVGDRVSVTCKASQNVGTNVAWYQQKPGHSPKVLIYSASYRHSGVPDRFTGSGSGTDFTLTIGNVQSEDLADYFCQQYDTYPLTFGSGTKLEIKR", "valueUnit": "min", "testResult": 15.6}
{"binder": "anti-IBP4 antibody 7G11.H4 (antibody, mouse IgG1, kappa, V domains shown, Mouse hybridoma mAb raised against FL IBP4; also called IBP4-7G11.H4) VH: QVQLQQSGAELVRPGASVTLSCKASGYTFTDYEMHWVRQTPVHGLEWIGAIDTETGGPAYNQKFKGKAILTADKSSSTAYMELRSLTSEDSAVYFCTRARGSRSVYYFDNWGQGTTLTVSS VL: DIVMTQSQKFMSTSVGDRVSVTCKASQNVDTNIAWYQQKPGHSPKALIYSASYRYSGVPDRFTGSGSGTDFTLTIGNVQSEDLADYFCQQYDTYPLTFGSGTKLEIKR", "valueUnit": "min", "testResult": 11.3}

We now examine a further binder.
Prompt: What measured t1/2 goes with anti-IBP4 antibody 3D4.E9 (antibody, mouse IgG2b, kappa, V domains shown, Mouse hybridoma mAb raised against FL IBP4; also called IBP4-3D4.E9) VH: QVQLQQSGAELVRPGASVTLSCKASGYTFTDYEMHWVKQTPVHGLEWIGAIDPETGGAAYNQKFKGKAILTADKSSSTAYMELRSLTSEDSAVYYCTRARGSSSVYYFDYWGQGTTLTVSS VL: DIVMTQSQKFMSTSVGDRVSVTCKASQNVGTNVAWYQQKPGQSPKALIYSTSYRYSGVPDRFTGSRSGTDFILTISNVQSEDLAEYFCQQYDSYPLTFGSGTKLEIKR ?
Completion: 5.23
